- Study System: FOXO3a-DBD K245A (Homo sapiens, UniProt O43524 158-253, K245A)
- Sequence (O43524 158-253 K245A): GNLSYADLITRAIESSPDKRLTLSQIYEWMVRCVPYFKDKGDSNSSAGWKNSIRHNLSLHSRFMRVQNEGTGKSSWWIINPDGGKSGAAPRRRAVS
- Protocol Description: fluorescence anisotropy
Measurement Kind: Kd (nM)
Give the number; nM is assumed, so skip it.

Input line: May I ask what Kd has been recorded for 26-bp FOXO consensus FA duplex (dsDNA) DNA 1: CGCATCCTATGTAAACAACTCGAGTC DNA 2: GACTCGAGTTGTTTACATAGGATGCG ?
Output line: 511
